# Target: CfNupC (Citrobacter freundii)
# Construct: gene nupC; full-length, C-terminal biotin-acceptor domain tag (pT7-5/-BAD), expressed in E. coli JW2389 (nupC knockout)
# Sequence (A0A0D7LF62 entry or part of it): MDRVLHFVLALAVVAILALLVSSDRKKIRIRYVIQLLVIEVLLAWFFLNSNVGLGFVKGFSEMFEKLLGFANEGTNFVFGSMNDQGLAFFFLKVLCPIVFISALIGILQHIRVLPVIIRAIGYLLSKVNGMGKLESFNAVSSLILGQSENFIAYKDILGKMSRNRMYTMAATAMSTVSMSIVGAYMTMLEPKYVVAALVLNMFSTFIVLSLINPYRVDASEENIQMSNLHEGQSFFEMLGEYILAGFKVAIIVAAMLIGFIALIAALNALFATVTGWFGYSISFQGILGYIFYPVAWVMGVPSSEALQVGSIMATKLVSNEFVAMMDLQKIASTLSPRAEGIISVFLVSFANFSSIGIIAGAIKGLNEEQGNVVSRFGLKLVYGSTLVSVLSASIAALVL
# Protocol Text: inhibition of [3H]-gemcitabine uptake in E. coli JW2389
# Format: cell-based
# Condition Summary: read-out: Inhibition by Other Nucleosides / Ki (μM) (Cytidine)
# Text: inhibition of [3H]-gemcitabine uptake in E. coli JW2389 on CfNupC
Quantity Measured: Ki (µM)
Only the number, expressed in µM, is required.

Challenge: Provide measured Ki value, entry: "Nc1ccn([C@@H]2O[C@H](CO)[C@@H](O)[C@H]2O)c(=O)n1"
Response given: 7.2
